Test system: C. reinhardtii CC-1928
Test: Effect of copper on activity of hydrazones: in vitro growth inhibition of C. reinhardtii in TAP Cu minus / TAP Cu plus medium (Example 10)
Type: cell-based, Chlamydomonas reinhardtii
Details: test compound 1 μg/mL; TAP Cu plus medium (CuCl2); 48 h
Protocol: In vitro toxicity assays against C. reinhardtii CC-1928 (wild type mt+137c green in dark subclone) obtained from the Chlamydomonas Resource Center at Duke University were conducted using TAP liquid growth medium described by Gorman and Levine Proc. Natl. Acad. Sci. USA 1965, 54, 1665-1669 except that CuSO4.5H2O, normally included as a component of Hutner's trace element stock solution (Hutner et al. Proc. Am. Philos. Soc. 1950, 94, 152-170), was omitted. […]
Item-by-item account of % Inhn. Plus Copper Observed
# number only, unit % dropped from output

Here are 5 molecules together with their reported answers.
| molecule | property.measured | experimental.value |
| --- | --- | --- |
| O=C(N/N=C/c1c(O)cccc1Cl)c1ccc([N+](=O)[O-])cc1 [Compound 49] | % Inhn. Plus Copper Observed | 93 |
| COc1cc(Br)cc(/C=N/NC(=O)c2cccc(Br)c2)c1O [Compound 19] | % Inhn. Plus Copper Observed | 52 |
| O=C(N/N=C/c1cccc(Cl)c1O)c1ccc([N+](=O)[O-])cc1 [Compound 53] | % Inhn. Plus Copper Observed | 88 |
| C/C(=N\NC(=O)c1ccc(C)cc1)c1cc(Cl)cc(Cl)c1O [Compound 26] | % Inhn. Plus Copper Observed | 94 |
| C/C(=N\NC(=O)c1ccccc1)c1cc(Cl)cc(Cl)c1O [Compound 6] | % Inhn. Plus Copper Observed | 98 |

Measured % Inhn. Plus Copper Observed of COc1cc(Br)cc(/C=N/NC(=O)c2ccc(C)cc2)c1O [Compound 20] : 94

Measured % Inhn. Plus Copper Observed of O=C(N/N=C/c1cccc(C(F)(F)F)c1O)c1ccc(Cl)cc1 [Compound 35] : 97

Measured % Inhn. Plus Copper Observed of C/C(=N\NC(=O)c1ccc(Cl)cc1)c1cc(F)cc(F)c1O [Compound 62] : 95

Measured % Inhn. Plus Copper Observed of O=C(N/N=C/c1cc(Cl)cc(Cl)c1O)c1ccc(F)cc1 [Compound 4] : 92

====

Tested on: C. reinhardtii
Test: Growth inhibition of C. reinhardtii by hydrazones and isolated metal-hydrazone complexes, TAP Cu minus medium (Example 12)
Assay type: cell-based, Chlamydomonas reinhardtii
Conditions: isolated metal complex 1 μg/mL
property.measured: Complex % Inhn. (%)
# number only, unit % dropped from output

Here are 3 molecules together with their reported answers.
| molecule | Complex % Inhn. [%] |
| --- | --- |
| CC(=O)[O-].CC(=O)[O-].O=C(N/N=C/c1cc(Cl)cc(Cl)c1O)c1ccccc1.[Cu+2] [Compound 72] | 96 |
| CC(=O)[O-].CC(=O)[O-].O=C(N/N=C/c1cc(Cl)cc(Cl)c1O)c1ccccc1.O=C(N/N=C/c1cc(Cl)cc(Cl)c1O)c1ccccc1.[Cu+2] [Compound 73] | 96 |
| C/C(=N\NC(=O)c1cccc(C)c1)c1cc(Cl)cc(Cl)c1O.[Cl-].[Cl-].[Cu+2] [Compound 90] | 49 |

Continue with the molecule presented below.
Measured Complex % Inhn. of O=C(NN=Cc1cc(Cl)cc(Cl)c1O)c1ccccc1.O=C(NN=Cc1cc(Cl)cc(Cl)c1O)c1ccccc1.[Cl-].[Cl-].[Zn+2] [Compound 78] : −5

====

Tested on: C. reinhardtii
Test: Growth inhibition of C. reinhardtii by hydrazones and isolated metal-hydrazone complexes, TAP Cu minus medium (Example 12)
Type: cell-based, Chlamydomonas reinhardtii
Settings: isolated metal complex 1 μg/mL
Item-by-item account of Complex % Inhn.
# number only, unit % dropped from output

Fill in: C. reinhardtii Complex % Inhn. for "O=C(N/N=C/c1cc(Cl)cc(Cl)c1O)c1ccccc1.O=C(N/N=C/c1cc(Cl)cc(Cl)c1O)c1ccccc1.[Cl-].[Cl-].[Mn+2]" = −1

Fill in: C. reinhardtii Complex % Inhn. for "O=C(N/N=C/c1cc(Cl)cc(Cl)c1O)c1ccccc1.O=C(N/N=C/c1cc(Cl)cc(Cl)c1O)c1ccccc1.O=S(=O)([O-])[O-].[Cu+2]" = 96

Fill in: C. reinhardtii Complex % Inhn. for "O=C(N/N=C/c1cc(Cl)cc(Cl)c1O)c1ccccc1.O=C(N/N=C/c1cc(Cl)cc(Cl)c1O)c1ccccc1.[Cl-].[Cl-].[Cu+2]" = 75

Fill in: C. reinhardtii Complex % Inhn. for "O=C(N/N=C/c1cc(Cl)cc(Cl)c1O)c1ccccc1.[Cl-].[Cl-].[Cu+2]" = 95

====

Test system: Synechocystis sp. strain 6803
Experiment: Growth inhibition of Synechocystis by hydrazones and isolated metal-hydrazone complexes, BG-11 Cu minus medium (Example 12)
Format: cell-based
Details: Test Concn. 0.05 μg/ml
property.measured: Complex % Inhn. (%)
# number only, unit % dropped from output

Fill in: Synechocystis sp. strain 6803 Complex % Inhn. for "O=C(N/N=C/c1cc(Cl)cc(Cl)c1O)c1ccccc1.O=C(N/N=C/c1cc(Cl)cc(Cl)c1O)c1ccccc1.[Cl-].[Cl-].[Mn+2]" = 35

====

System: C. reinhardtii CC-1928
Assay: Effect of copper on activity of hydrazones: in vitro growth inhibition of C. reinhardtii in TAP Cu minus / TAP Cu plus medium (Example 10)
Assay type: cell-based, Chlamydomonas reinhardtii
Conditions: test compound 1 μg/mL; TAP Cu plus medium (CuCl2); 48 h
property.measured: % Inhn. Plus Copper Observed (%)
# number only, unit % dropped from output

Here are 5 molecules together with their reported answers.
| smiles.representation | property.measured | experimental.value |
| --- | --- | --- |
| O=C(N/N=C/c1cc(Cl)cc(Cl)c1O)c1ccccc1 | % Inhn. Plus Copper Observed | 96 |
| O=C(N/N=C/c1cc(Cl)cc(Cl)c1O)c1ccc2ccccc2c1 | % Inhn. Plus Copper Observed | 93 |
| O=C(N/N=C/c1ccc(Cl)c(Cl)c1O)c1cccc(F)c1 | % Inhn. Plus Copper Observed | 91 |
| O=C(N/N=C/c1cc(Cl)cc(Cl)c1O)c1ccccc1O | % Inhn. Plus Copper Observed | 94 |
| O=C(N/N=C/c1cc(Cl)cc(Cl)c1O)c1cccc(Cl)c1 | % Inhn. Plus Copper Observed | 92 |

Measured % Inhn. Plus Copper Observed of "O=C(N/N=C/c1cc(Cl)cc(C(F)(F)F)c1O)c1cccc(Cl)c1" : 77

Measured % Inhn. Plus Copper Observed of "C/C(=N\NC(=O)c1ccc(Br)cc1)c1cccc([N+](=O)[O-])c1O" : 89

Measured % Inhn. Plus Copper Observed of "Cc1ccc(C(=O)N/N=C/c2ccc(Cl)c(Cl)c2O)c(O)c1" : 96

Measured % Inhn. Plus Copper Observed of "O=C(N/N=C/c1c(Cl)ccc(Cl)c1O)c1ccc(F)cc1" : 93

Measured % Inhn. Plus Copper Observed of "O=C(N/N=C/c1ccc(Cl)c(Cl)c1O)c1ccccc1" : 94

Measured % Inhn. Plus Copper Observed of "O=C(N/N=C/c1cc(C(F)(F)F)cc(C(F)(F)F)c1O)c1ccc(Cl)cc1" : 97

Measured % Inhn. Plus Copper Observed of "Cc1cccc(C(=O)N/N=C/c2cccc(C(F)(F)F)c2O)c1" : 97

Measured % Inhn. Plus Copper Observed of "Cc1cccc(C(=O)N/N=C/c2c(Cl)ccc(Cl)c2O)c1" : 96

Measured % Inhn. Plus Copper Observed of "Cc1cccc(C(=O)N/N=C/c2cccc(Cl)c2O)c1" : 97

Measured % Inhn. Plus Copper Observed of "O=C(N/N=C/c1c(Cl)ccc(Cl)c1O)c1ccccc1O" : 92

Measured % Inhn. Plus Copper Observed of "O=C(N/N=C/c1cc(Cl)cc(Br)c1O)c1cccc(Br)c1" : 83

Measured % Inhn. Plus Copper Observed of "Cc1ccc(C(=O)N/N=C/c2cc(C(F)(F)F)cc(Cl)c2O)c(O)c1" : 88

Measured % Inhn. Plus Copper Observed of "O=C(N/N=C/c1cc(C(F)(F)F)cc(Cl)c1O)c1ccc(F)cc1" : 96

Measured % Inhn. Plus Copper Observed of "O=C(N/N=C/c1cc(Cl)cc(Cl)c1O)c1cccc(C(F)(F)F)c1" : 96

Measured % Inhn. Plus Copper Observed of "C/C(=N\NC(=O)c1c(C)cccc1O)c1cc(Cl)cc(Cl)c1O" : 93

Measured % Inhn. Plus Copper Observed of "O=C(N/N=C/c1cccc(Cl)c1O)c1ccc(Cl)cc1" : 88

====

property.measured: melting point

Here are 5 molecules together with their reported answers.
| smiles.representation | property.measured | experimental.value |
| --- | --- | --- |
| O=C(N/N=C/c1cc(Cl)cc(Cl)c1O)c1cccc(C(F)(F)F)c1 | melting point | 165 to 169 °C |
| Cc1ccc(C(=O)N/N=C/c2cccc(Cl)c2O)c(O)c1 | melting point | 258 to 266 °C |
| C/C(=N\NC(=O)c1ccc(C)cc1)c1cccc(Cl)c1O | melting point | 195 to 200 °C |
| O=C(N/N=C/c1c(O)cccc1Cl)c1ccc([N+](=O)[O-])cc1 | melting point | > 300 °C |
| O=C(N/N=C/c1cccc(Cl)c1O)c1cccc(Cl)c1 | melting point | 174 to 178 °C |

Measured melting point of "O=C(N/N=C/c1c(Cl)ccc(Cl)c1O)c1ccccc1O" : 260 to 262 °C

Measured melting point of "O=C(N/N=C/c1cc(C(F)(F)F)cc(C(F)(F)F)c1O)c1ccc(Cl)cc1" : 233 to 236 °C
